TEST DESCRIPTION: in vivo
MEASUREMENT CONTEXT: male, Sprague Dawley, rat, iv, 3.5 mg/kg
READOUT: half-life (h)

[[record]]
molecule = "O=C(Nc1ccc(Cl)c(C(F)(F)F)c1)NC1COC(CO)C(n2c(NCc3ccccc3)nc3cc(C(F)(F)F)ccc32)C1O (stereo not shown)"
readout = "half-life"
measured_number = 27.2


---

TEST DESCRIPTION: In vivo pharmacokinetics, i.v. administration to male rats
MEASUREMENT CONTEXT: Sprague Dawley, rat, iv, 3.5 mg kg^-1
READOUT: blood plasma ratio

[[record]]
molecule = "O=C(Nc1ccc(Cl)c(C(F)(F)F)c1)NC1COC(CO)C(n2c(NCc3ccccc3)nc3cc(C(F)(F)F)ccc32)C1O (stereo not shown)"
measured_number = 0.86

